# Measured on: UniProt P05067
# Sequence (P05067 672-713): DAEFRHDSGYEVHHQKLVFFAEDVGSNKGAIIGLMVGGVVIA
# Assay remarks: aggregation inhibition of isolated peptide, quantum-dot fluorescence imaging (MSHTS)
Property measured: EC50 (µM)
# unit: µM | format: bare number

Prompt: Need EC50 of O=C(/C=C/c1ccc(O)c(O)c1)O[C@H](Cc1ccc(O)c(O)c1)C(=O)O , thanks.
Completion: 20.6
